- assayTarget: PKB, full-length recombinant bovine protein, alpha form (Bos taurus, UniProt Q01314)
- Sequence (Q01314 whole entry): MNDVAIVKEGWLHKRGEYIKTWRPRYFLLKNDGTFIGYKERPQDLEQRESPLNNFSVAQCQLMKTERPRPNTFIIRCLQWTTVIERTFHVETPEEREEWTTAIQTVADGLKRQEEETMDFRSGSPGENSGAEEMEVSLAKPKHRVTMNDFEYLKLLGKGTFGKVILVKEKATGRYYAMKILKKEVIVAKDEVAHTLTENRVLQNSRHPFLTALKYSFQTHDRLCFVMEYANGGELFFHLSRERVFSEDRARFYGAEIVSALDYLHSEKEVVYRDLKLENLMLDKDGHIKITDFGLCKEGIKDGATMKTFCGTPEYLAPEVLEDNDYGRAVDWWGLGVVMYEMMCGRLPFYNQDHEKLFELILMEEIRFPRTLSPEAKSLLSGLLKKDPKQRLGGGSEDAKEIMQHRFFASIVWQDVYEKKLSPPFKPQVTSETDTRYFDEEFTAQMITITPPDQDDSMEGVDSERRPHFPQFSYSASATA
- assayProcedure: PKB inhibition in vitro enzyme assay (radioactive phosphate incorporation, scintillation counting)
- testSettings: PKB in vitro enzyme assay, 15 min at room temperature
measure: IC50

Reference set, count: 5
Cc1ccc2nc3c(nc2c1)C(=O)c1ccccc1-3 [KP-23172-029] :: > 100 µM
Cc1cc2nc3c(nc2cc1C)-c1ccccc1/C3=N\Nc1ccccc1 [KP-23172-017] :: > 100 µM
Cc1cc2nc3c(nc2cc1C)-c1ccccc1C3=O [KP-23172-007] :: > 100 µM
c1ccc(N/N=C2\C(=N/Nc3ccccc3)Nc3ccccc32)cc1 [KP-23172-025] :: > 100 µM
O=C1c2ccccc2-c2nc3c(O)ncnc3nc21 [KP-23172-009] :: > 100 µM

Turning now to a further molecule:
q: # get_value(readout='IC50', item= c1ccc2c(c1)Cc1nn3nnnc3nc1-2 [KP-23172-008] )
a: > 100 µM

---

- Tested on: LS-180 (human colon carcinoma)
- assayProcedure: [3H] thymidine uptake cell proliferation assay, LS180
- Assay type: cell-based
- testSettings: read-out: Cell Proliferation Effects (IC50 (nM))
measure: IC50 (nM)
The figure you give is taken to be in nM; do not add the unit.

q: Param readout= IC50; system= LS-180 (human colon carcinoma); entry= O=C1c2ccccc2-c2nc3nnnn3nc21 ; returns value.
a: 80

---

- assayProcedure: physchem
- testSettings: water
measure: solubility
The answer consists of two parts: a number and, after it, its unit.

q: # get_value(readout='solubility', item= O=C1c2ccccc2-c2nc3nnnn3nc21 )
a: 0.077 mg/mL

---

- assayProcedure: in vivo
- testSettings: mouse, ip, 2 mg/kg
measure: concentration at 60 min

q: # get_value(readout='concentration at 60 min', item= O=C1c2ccccc2-c2nc3nnnn3nc21 [KP-23172] )
a: ~100 ng/mL

---

- assayProcedure: in vivo
- testSettings: mouse, ip, 2 mg/kg
measure: concentration at 15 min

q: # get_value(readout='concentration at 15 min', item= O=C1c2ccccc2-c2nc3nnnn3nc21 )
a: ~500 ng/mL

---

- Test system: human breast carcinoma MDA-MB-435 cell line
- assayProcedure: [3H] thymidine uptake cell proliferation assay, MDA435
- Assay type: cell-based
- testSettings: read-out: Cell Proliferation Effects (IC50 (nM))
- Description: The human breast carcinoma MDA-MB-435 cell line was obtained from MD Anderson Cancer Center, and cultured in alpha-MEM media supplemented with 10% Fetal Bovine Serum. […] Proliferation can be measured by quantifying the amount of [^3H] thymidine uptake into cells using a β-counter, and therefore is a well-established diagnostic tool to measure DNA synthesis within the cells. […] Then, 100 μL of scintillation fluid was added to each well and the activity counted using a Wallac Microbeta Counter.
measure: IC50 (nM)
The figure you give is taken to be in nM; do not add the unit.

q: # get_value(readout='IC50', item= O=C1c2ccccc2-c2nc3nnnn3nc21 )
a: 60

---

Entries and their IC50 values follow.
- Tested on: HT-29 human colon carcinoma
- assayProcedure: [3H] thymidine uptake cell proliferation assay, HT29
- Format: cell-based
- testSettings: read-out: Cell Proliferation Effects (IC50 (nM))
The figure you give is taken to be in nM; do not add the unit.

O=C1c2ccccc2-c2nn3nnnc3nc21 :: 500

Turning now to a further compound:
q: # get_value(readout='IC50', item= O=C1c2ccccc2-c2nc3nnnn3nc21 )
a: 200

Cited source: patent US7196083B2
